- Test Protocol: Lipophilicity, log P of the compound
- Assay type: physicochemical
- Protocol Conditions: octanol/water
Reported Property: logP
Give the value as a plain number.

Example results:
Chemical Structure | logP
O=C(O)c1ccccc1S[C@H]1CC(=O)[C@@H]2OC[C@H]1O2 | 1.28
O=C1C[C@H](S[C@@H]2O[C@H](CO)[C@@H](O)[C@H](O)[C@H]2O)[C@H]2CO[C@@H]1O2 | -2.05
CC(=O)OC[C@H]1O[C@@H](S[C@H]2CC(=O)[C@@H]3OC[C@H]2O3)[C@H](OC(C)=O)[C@@H](OC(C)=O)[C@@H]1OC(C)=O | -1.13

Turning to the following compound.
**Query** Kindly indicate its recorded logP. Item: CC(=O)OC[C@H]1O[C@@H](S[C@H]2CC(=O)[C@@H]3OC[C@H]2O3)[C@H](OC(C)=O)[C@@H](OC(C)=O)[C@H]1OC(C)=O
**Result** -1.13

====

Overview of reported IC50 across a group of compounds:
- Tested on: MCF7
- Test Protocol: Cytotoxicity against human MCF7 cells after 14 hrs by CCK-8 assay
- Type: functional, cell-based
- Protocol Conditions: MCF7, 14 h
Provide only the numeric value, understood in µM.

Chemical Structure | Observed
CC(=O)OC[C@H]1O[C@@H](S[C@H]2CC(=O)[C@@H]3OC[C@H]2O3)[C@H](OC(C)=O)[C@@H](OC(C)=O)[C@@H]1OC(C)=O | 47.1
CC(=O)OC[C@H]1O[C@@H](S[C@H]2CC(=O)[C@@H]3OC[C@H]2O3)[C@H](OC(C)=O)[C@@H](OC(C)=O)[C@H]1OC(C)=O | 344
O=C(O)c1ccccc1S[C@H]1CC(=O)[C@@H]2OC[C@H]1O2 | 218

Turning to the following compound.
**Query** Give the observed IC50 of O=C1C[C@H](S[C@@H]2O[C@H](CO)[C@@H](O)[C@H](O)[C@H]2O)[C@H]2CO[C@@H]1O2 for MCF7.
**Result** 366
